- protocol: Phase 1 SAD/MAD pharmacokinetics of oral ATI-450 in healthy subjects (incl. 80/120 mg BID extension)
- Type: in vivo, human
- measurement-parameters: both sexes, human, plasma, oral, 120 mg, 120 mg BID, day 2; read-out: Ctrough

>  <compound>
Cc1cnc(-c2ccnc(C(C)(C)O)n2)cc1-n1c(C)cc(OCc2ncc(F)cc2F)c(Cl)c1=O (single isomer, unassigned) [ATI-450]

>  <endpoint-unit>
ng/mL

>  <concentration at 2 day>
152

$$$$

###

- protocol: Phase 1 SAD/MAD pharmacokinetics of oral ATI-450 in healthy subjects (incl. 80/120 mg BID extension)
- Format: in vivo, human
- measurement-parameters: both sexes, human, plasma, oral, 120 mg, 120 mg BID, day 6; read-out: Ctrough
- Description: Study Design. […] Single ascending dose (SAD) cohorts. […] Multiple ascending dose (MAD) cohorts. […] Blood Sampling and Bioanalysis. Two-milliliter blood samples were collected for PK analysis. […] The lower limit of quantification was 0.500 ng/mL. Pharmacokinetics. […] The method was minimally required to have intra- and inter-day precision (coefficients of variation) for pooled plasma quality control samples of ≤15% except at the lower limit of quantitation, where ≤20% was acceptable. […]

>  <molecule>
Cc1cnc(-c2ccnc(C(C)(C)O)n2)cc1-n1c(C)cc(OCc2ncc(F)cc2F)c(Cl)c1=O (single isomer, unassigned)

>  <concentration at 6 day (ng/mL)>
161

$$$$
